Give measured activity at 50 µM for each item. Keep answers brief.
Target: CYP2D6 (Homo sapiens, UniProt P10635)
Construct: from tissue; host or cells: human liver microsomes (pooled in the time-dependent assay)
Sequence (P10635 whole entry): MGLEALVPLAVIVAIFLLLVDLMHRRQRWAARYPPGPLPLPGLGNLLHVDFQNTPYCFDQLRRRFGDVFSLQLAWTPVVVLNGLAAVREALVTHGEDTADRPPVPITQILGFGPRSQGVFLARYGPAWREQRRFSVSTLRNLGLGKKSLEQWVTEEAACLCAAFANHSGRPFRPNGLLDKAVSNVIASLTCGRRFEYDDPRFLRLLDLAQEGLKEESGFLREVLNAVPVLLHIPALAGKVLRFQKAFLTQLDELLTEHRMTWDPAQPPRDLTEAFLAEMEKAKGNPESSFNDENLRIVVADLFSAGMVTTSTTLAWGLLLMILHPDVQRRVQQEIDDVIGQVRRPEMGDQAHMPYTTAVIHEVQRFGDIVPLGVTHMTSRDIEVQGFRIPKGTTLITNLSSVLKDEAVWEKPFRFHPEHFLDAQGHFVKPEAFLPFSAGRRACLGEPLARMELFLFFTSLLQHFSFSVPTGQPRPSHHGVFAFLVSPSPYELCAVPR
Assay: direct inhibition of CYP450 in human liver microsomes
Format: in vitro ADME
Conditions: 50 uM, % of non-inhibited control, read-out: CYP2D6 T0 % activity
Method: Direct inhibition: […] A Perspective of the Pharmaceutical Research and Manufacturers of America”, Drug Metabolism and Disposition, 37 (7): 1355, 2009). For 3A4, the % activity was measured using both midazolam and testosterone as probes. Each compound at 3, 10, and 50 μM was incubated with HLM, NADPH and CYP isoenzyme specific probe substrates at 37° C. Inhibition of the probe substrate metabolism was quantified using LC/MS/MS. […]
One number for each entry, in %.

Example entries and their recorded answers appear below.
Tell me the measured activity at 50 µM of Cn1cncc1-c1ccnc(C(=O)Nc2ccc(C(C)(C)O)nc2)n1 [Compound 250] , please. 47

Give the measured activity at 50 µM of CC(C)(O)c1ccc(NC(=O)c2nccc(-n3ccnc3)n2)cn1 [Compound 249] . 87

I'd like to know its activity at 50 µM. The compound in question is [2H]c1nc([2H])n(-c2nc(C)cc(C(=O)N[C@H]3CC[C@H](OCCOC)CC3)n2)c1[2H] [Comparator Compound A, reference compound] 42

Continue with the compound presented below.
What does the record list as activity at 50 µM for CO[C@H]1CC[C@H](NC(=O)c2cc(C3CCC(F)(F)CC3)nc(-c3cncn3C)n2)CC1 [Compound 289] ? 64
